# assayed_target: Gamma-secretase
# assay_name: Inhibition of gamma-secretase (unknown origin) expressed in N2a NL/N cells coexpressing betaAPPNL and NotchdeltaE assessed as Abeta40 secretion by ELISA
# Type: cell-based, Homo sapiens
outcome_measure: IC50 (nM)
Only the number, expressed in nM, is required.

Below: 3 compounds and their reported IC50.
| item_smiles | IC50 [nM] |
| --- | --- |
| CC(=O)N[C@H]1CCC[C@@H]1C(=O)N[C@H]1CCC[C@@H]1C(=O)NCCC(=O)N[C@H]1CCC[C@@H]1C(=O)N[C@H]1CCC[C@@H]1C(=O)N[C@H]1CCC[C@@H]1C(=O)N[C@H]1CCC[C@@H]1C(=O)N[C@H]1CCC[C@@H]1C(=O)N[C@H]1CCC[C@@H]1C(=O)N[C@H]1CCC[C@@H]1C(=O)N[C@H]1CCC[C@@H]1C(=O)N[C@H]1CCC[C@@H]1C(N)=O | 2.47 |
| CC(=O)N[C@H]1CCC[C@@H]1C(=O)N[C@H]1CCC[C@@H]1C(=O)N[C@H]1CCC[C@@H]1C(=O)N[C@H]1CCC[C@@H]1C(=O)N[C@H]1CCC[C@@H]1C(=O)N[C@H]1CCC[C@@H]1C(=O)N[C@H]1CCC[C@@H]1C(=O)N[C@H]1CCC[C@@H]1C(=O)N[C@H]1CCC[C@@H]1C(=O)N[C@H]1CCC[C@@H]1C(N)=O | 2280 |
| CC(=O)N[C@H]1CCC[C@@H]1C(=O)N[C@H]1CCC[C@@H]1C(=O)N[C@H]1CCC[C@@H]1C(=O)N[C@H]1CCC[C@@H]1C(=O)N[C@H]1CCC[C@@H]1C(=O)N[C@H]1CCC[C@@H]1C(=O)N[C@H]1CCC[C@@H]1C(=O)N[C@H]1CCC[C@@H]1C(=O)N[C@H]1CCC[C@@H]1C(=O)N[C@H]1CCC[C@@H]1C(=O)N[C@H]1CCC[C@@H]1C(N)=O | 244 |

Now examine the next entry.
Dear colleague, I am looking for the recorded IC50 of the following compound: "O=S(=O)(N[C@H](CO)C(C(F)(F)F)C(F)(F)F)c1ccc(Cl)s1"
203
